Origin of the recorded values: patent US9150566B2

Tgt: human orexin-1 receptor (Homo sapiens (Human), UniProt O43613)
Sequence (O43613 whole entry): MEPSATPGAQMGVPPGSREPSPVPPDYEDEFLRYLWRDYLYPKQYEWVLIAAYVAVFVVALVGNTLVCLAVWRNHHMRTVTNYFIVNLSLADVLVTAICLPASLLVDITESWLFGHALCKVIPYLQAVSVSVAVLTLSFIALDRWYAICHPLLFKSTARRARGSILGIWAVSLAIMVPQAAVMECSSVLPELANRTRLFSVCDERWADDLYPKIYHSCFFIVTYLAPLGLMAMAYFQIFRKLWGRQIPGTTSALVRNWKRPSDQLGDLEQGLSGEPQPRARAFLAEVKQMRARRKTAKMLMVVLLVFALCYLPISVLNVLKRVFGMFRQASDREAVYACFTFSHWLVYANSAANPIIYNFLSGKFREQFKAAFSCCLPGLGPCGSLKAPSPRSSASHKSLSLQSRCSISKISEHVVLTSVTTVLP
Measurement protocol: In vitro intracellular calcium measurements (FLIPR), antagonistic activity on orexin-1 receptor
Assay type: cell-based
Measurement conditions: CHO cells expressing human orexin-1 receptor; FLIPR; 3 nM orexin-A agonist; 120 min antagonist incubation; geometric mean if determined several times; read-out: IC50 OX1
Assignment: determine reported pIC50 for the given compounds.
Scale: pIC50 equals -log10([C]), with [C] in mol/L.

Recall and state the measured pIC50 for `O=C(c1ccccc1-n1nccn1)N1CCOC[C@H]1Cc1cccc(-n2nccn2)c1` .
7.77

Recall and state the measured pIC50 for `Cc1ccc(-n2nccn2)c(C(=O)N2CCOC[C@H]2Cc2cccc(-n3cccn3)c2)c1F` .
8.70

Recall and state the measured pIC50 for `Cc1ccc(C[C@@H]2COCCN2C(=O)c2ccccc2-n2nccn2)cc1-c1ncccn1` .
7.80

Recall and state the measured pIC50 for `Cc1ccc(-n2nccn2)c(C(=O)N2CCOC[C@H]2Cc2cccc(-n3nccn3)c2)n1` .
7.37

Recall and state the measured pIC50 for `C[C@@H]1CN(C(=O)c2cc(Cl)ccc2-n2nccn2)[C@H](Cc2cc(-c3ncccn3)ccc2F)CO1` .
8.40

Recall and state the measured pIC50 for `CC[C@@H]1CN(C(=O)c2ccc(C)cc2-n2nccn2)[C@H](Cc2cccc(-n3nccn3)c2)CO1` .
8.30

Recall and state the measured pIC50 for `O=C(c1cc(Cl)ccc1-n1nccn1)N1CCOC[C@H]1Cc1cc(-n2nccn2)ccc1F` .
7.92

Recall and state the measured pIC50 for `O=C(c1ccc(C(F)(F)F)cc1-n1nccn1)N1CCOC[C@H]1Cc1cccc(-n2nccn2)c1` .
8.70

Recall and state the measured pIC50 for `Cc1ccc(C(=O)N2CCOC[C@H]2Cc2cc(-c3cccnn3)ccc2F)c(-n2nccn2)c1` .
7.89

Recall and state the measured pIC50 for `O=C(c1cc(Cl)ccc1-n1nccn1)N1CCOC[C@H]1Cc1cc(-c2ncon2)ccc1F` .
7.96

Recall and state the measured pIC50 for `COc1ccc(C[C@@H]2COCCN2C(=O)c2ccccc2-n2nccn2)cc1-n1cccn1` .
8.52

Recall and state the measured pIC50 for `Cc1ccc(C(=O)N2C[C@@H](C)OC[C@H]2Cc2cc(-n3nccn3)ccc2F)c(-n2nccn2)c1` .
8.30

Recall and state the measured pIC50 for `COc1ccc(C[C@@H]2COCCN2C(=O)c2ccc(F)cc2-n2nccn2)cc1-c1ncon1` .
9.00

Recall and state the measured pIC50 for `Cc1ccc(-n2cccn2)cc1C[C@@H]1COCCN1C(=O)c1cccc(C)c1-n1nccn1` .
7.60

Recall and state the measured pIC50 for `Cc1ccc(-n2nccn2)c(C(=O)N2CCOC[C@H]2Cc2cccc(-n3ccnn3)c2)c1` .
7.62

Recall and state the measured pIC50 for `Cc1ccc(-n2nccn2)c(C(=O)N2[C@H](Cc3cccc(-n4nccn4)c3)COC[C@@H]2C)c1` .
8.00

Recall and state the measured pIC50 for `Cc1ccc(-n2nccn2)c(C(=O)N2CCOC[C@@]2(C)Cc2cccc(-n3nccn3)c2)c1` .
7.60

Recall and state the measured pIC50 for `Cc1ccc(-n2nccn2)c(C(=O)N2CCOC[C@H]2Cc2cc(-n3nccn3)ccc2Cl)c1` .
8.15

Recall and state the measured pIC50 for `COc1ccc(C(=O)N2CCOC[C@H]2Cc2cc(-n3nccn3)ccc2F)c(-n2nccn2)c1` .
7.96

Recall and state the measured pIC50 for `Cc1ccc(-n2nccn2)c(C(=O)N2CCOC[C@H]2Cc2cc(-c3ncon3)ccc2F)c1` .
8.10

Recall and state the measured pIC50 for `Cc1ccc(-n2nccn2)c(C(=O)N2CCOC[C@H]2Cc2cccc(-c3ccccn3)c2)c1` .
8.52

Recall and state the measured pIC50 for `Cc1cccc(C(=O)N2CCOC[C@H]2Cc2cc(-n3nccn3)ccc2F)c1-n1nccn1` .
7.59

Recall and state the measured pIC50 for `Cc1cccc(C(=O)N2CCOC[C@H]2Cc2cc(-n3nccn3)ccc2Cl)c1-n1nccn1` .
8.22

Recall and state the measured pIC50 for `Cc1ccc(-n2nccn2)c(C(=O)N2CCOC[C@H]2Cc2cc(-n3nccn3)ccc2F)c1` .
8.40

Recall and state the measured pIC50 for `O=C(c1cc(Cl)ccc1-n1nccn1)N1CCOC[C@H]1Cc1cccc(-n2nccn2)c1` .
8.40

Recall and state the measured pIC50 for `O=C(c1ccccc1-n1nccn1)N1CCOC[C@H]1Cc1cccc(-c2cccnn2)c1` .
7.41

Recall and state the measured pIC50 for `O=C(c1ccccc1-n1nccn1)N1CCOC[C@H]1Cc1ccc(O)c(-c2ncccn2)c1` .
7.57
